This collection of values is drawn from ChEMBL document CHEMBL5303573.

assay: The drug is tested on Eubacterium rectale strain: ATCC33656 for biotransformation. The drug concentrations were measured before and after a 12-h incubation by liquid-chromatography-coupled mass spectrometry (LC–MS); conditions: agathobacter rectalis, 2 µM
measured.property: Bacterial Biotransformation

Recorded results for 5 molecules are shown here.
INSERT INTO assay_data (molecule, measured_property, assay_value) VALUES
  ('O=C(O)CCC(=O)O.O=C(O[C@H]1CN2CCC1CC2)N1CCc2ccccc2[C@@H]1c1ccccc1 [SOLIFENACIN SUCCINATE]', 'Bacterial Biotransformation', 'Compound NOT metabolized'),
  ('NC(CO)(CO)CO.O=C(c1ccccc1)c1ccc2n1CCC2C(=O)O (configuration not stated)', 'Bacterial Biotransformation', 'Compound NOT metabolized'),
  ('OCCN(CCO)c1nc(N2CCCCC2)c2nc(N(CCO)CCO)nc(N3CCCCC3)c2n1', 'Bacterial Biotransformation', 'Compound NOT metabolized'),
  ('CNC(=C[N+](=O)[O-])NCCSCc1csc(CN(C)C)n1', 'Bacterial Biotransformation', 'Compound metabolized'),
  ('CC(C)(C)NC(=O)[C@H]1CC[C@H]2[C@@H]3CC[C@H]4NC(=O)C=C[C@]4(C)[C@H]3CC[C@]12C [FINASTERIDE]', 'Bacterial Biotransformation', 'Compound NOT metabolized');

Lookup result for "CC(=O)O[C@H]1C(=O)[C@@]2(C)[C@H]([C@H](OC(=O)c3ccccc3)[C@]3(O)C[C@H](OC(=O)[C@H](O)[C@@H](NC(=O)c4ccccc4)c4ccccc4)C(C)=C1C3(C)C)[C@]1(OC(C)=O)CO[C@@H]1C[C@@H]2O" ; measured Bacterial Biotransformation: Compound NOT metabolized

Lookup result for "CCOC(=O)[C@H](CCc1ccccc1)N[C@@H](C)C(=O)N1Cc2ccccc2C[C@H]1C(=O)O" ; measured Bacterial Biotransformation: Compound NOT metabolized

Lookup result for "CNNCc1ccc(C(=O)NC(C)C)cc1" ; measured Bacterial Biotransformation: Compound NOT metabolized

Lookup result for "Cc1cn([C@H]2C[C@H](N=[N+]=[N-])[C@@H](CO)O2)c(=O)[nH]c1=O" ; measured Bacterial Biotransformation: Compound NOT metabolized

Lookup result for CCN(C)C(=O)Oc1cccc([C@H](C)N(C)C)c1.O=C(O)C(O)C(O)C(=O)O [RIVASTIGMINE TARTRATE] ; measured Bacterial Biotransformation: Compound NOT metabolized

Lookup result for CC(C)NCC(O)COc1ccc(CCOCC2CC2)cc1 (configuration not stated) ; measured Bacterial Biotransformation: Compound NOT metabolized

Lookup result for CCN1CCCC1CNC(=O)c1cc(S(N)(=O)=O)ccc1OC (configuration not stated) [SULPIRIDE] ; measured Bacterial Biotransformation: Compound NOT metabolized

Lookup result for Cc1nc2n(c(=O)c1CCN1CCC(c3noc4cc(F)ccc34)CC1)CCCC2O (configuration not stated) ; measured Bacterial Biotransformation: Compound metabolized

Lookup result for "C#C[C@]1(O)CC[C@H]2[C@@H]3CCC4=CC(=O)CC[C@@H]4[C@H]3CC[C@@]21CC" ; measured Bacterial Biotransformation: Compound NOT metabolized

Lookup result for O=C(NC(Cc1cc(=O)[nH]c2ccccc12)C(=O)O)c1ccc(Cl)cc1 (configuration not stated) [REBAMIPIDE] ; measured Bacterial Biotransformation: Compound NOT metabolized

Lookup result for "CCCCCOC(=O)Nc1nc(=O)n([C@@H]2O[C@H](C)[C@@H](O)[C@H]2O)cc1F" ; measured Bacterial Biotransformation: Compound metabolized

Lookup result for CN(C)C(=O)Oc1cc(OC(=O)N(C)C)cc(C(O)CNC(C)(C)C)c1 (configuration not stated) ; measured Bacterial Biotransformation: Compound NOT metabolized

Lookup result for "CN(C/C=C/C#CC(C)(C)C)Cc1cccc2ccccc12" ; measured Bacterial Biotransformation: Compound NOT metabolized

Lookup result for COc1cc(NC(C)CCCN)c2ncccc2c1.O=P(O)(O)O.O=P(O)(O)O (configuration not stated) [PRIMAQUINE PHOSPHATE] ; measured Bacterial Biotransformation: Compound NOT metabolized

Lookup result for CCN1CCCC1CNC(=O)c1cc(S(=O)(=O)CC)c(N)cc1OC (configuration not stated) [AMISULPRIDE] ; measured Bacterial Biotransformation: Compound NOT metabolized

Lookup result for "c1ccc2[nH]c(-c3cscn3)nc2c1" ; measured Bacterial Biotransformation: Compound NOT metabolized

Lookup result for CCCCCCOC(=O)/N=C(/N)c1ccc(NCc2nc3cc(C(=O)N(CCC(=O)OCC)c4ccccn4)ccc3n2C)cc1.CS(=O)(=O)O [DABIGATRAN ETEXILATE MESYLATE] ; measured Bacterial Biotransformation: Compound NOT metabolized

Lookup result for "N#Cc1ccc2c(c1)N(CCCN1CCC(O)CC1)c1ccccc1S2" ; measured Bacterial Biotransformation: Compound NOT metabolized

Lookup result for "CCOC(=O)[C@H](CCc1ccccc1)N[C@@H](C)C(=O)N1[C@H](C(=O)O)C[C@H]2CCCC[C@@H]21" ; measured Bacterial Biotransformation: Compound NOT metabolized

Lookup result for O=P1(N(CCCl)CCCl)NCCCO1 (configuration not stated) [CYCLOPHOSPHAMIDE ANHYDROUS] ; measured Bacterial Biotransformation: Compound NOT metabolized

Lookup result for CCOc1cc(CC(=O)N[C@@H](CC(C)C)c2ccccc2N2CCCCC2)ccc1C(=O)O [REPAGLINIDE] ; measured Bacterial Biotransformation: Compound NOT metabolized

Lookup result for "NC12CC3CC(CC(C3)C1)C2" ; measured Bacterial Biotransformation: Compound NOT metabolized

----------
details: parabacteroides distasonis, 12 h, 2 µM
Description: The drug is tested on Parabacteroides distasonis strain: ATCC8503 for biotransformation. The drug concentrations were measured before and after a 12-h incubation by liquid-chromatography-coupled mass spectrometry (LC–MS)
measured.property: Bacterial Biotransformation

Recorded results for 4 compounds are shown here.
INSERT INTO results (compound, assay_value) VALUES
  ('C#C[C@]1(OC(C)=O)CC[C@H]2[C@@H]3CCC4=CC(=O)CC[C@@H]4[C@H]3CC[C@@]21C [NORETHINDRONE ACETATE]', 'Compound NOT metabolized'),
  ('CCCC(C)(COC(N)=O)COC(=O)NC(C)C (stereo not drawn) [CARISOPRODOL]', 'Compound metabolized'),
  ('CCc1oc2ccccc2c1C(=O)c1cc(Br)c(O)c(Br)c1 [BENZBROMARONE]', 'Compound NOT metabolized'),
  ('CN1C(=O)CCS(=O)(=O)C1c1ccc(Cl)cc1 (stereo not drawn) [CHLORMEZANONE]', 'Compound NOT metabolized');

Lookup result for CC(=O)OCC(CCn1cnc2cnc(N)nc21)COC(C)=O [FAMCICLOVIR] ; measured Bacterial Biotransformation: Compound metabolized

Lookup result for CCN(CC)CCOCCOC(=O)C1(c2ccccc2)CCCC1.O=C(O)CC(O)(CC(=O)O)C(=O)O [CARBETAPENTANE CITRATE] ; measured Bacterial Biotransformation: Compound metabolized

Lookup result for O=C1[C@H](CC[C@H](O)c2ccc(F)cc2)[C@@H](c2ccc(O)cc2)N1c1ccc(F)cc1 [EZETIMIBE] ; measured Bacterial Biotransformation: Compound NOT metabolized

Lookup result for CC(=O)OCC(=O)[C@@]12N=C(C)O[C@@H]1C[C@H]1[C@@H]3CCC4=CC(=O)C=C[C@]4(C)[C@H]3[C@@H](O)C[C@@]12C [DEFLAZACORT] ; measured Bacterial Biotransformation: Compound metabolized

----------
conditions: akkermansia muciniphila, 12 h, 2 µM
Description: The drug is tested on Akkermansia muciniphila strain: ATCC BAA-835 for biotransformation. The drug concentrations were measured before and after a 12-h incubation by liquid-chromatography-coupled mass spectrometry (LC–MS)
measured.property: Bacterial Biotransformation

Recorded results for 5 molecules are shown here.
INSERT INTO assay_data (molecule, assay_value) VALUES
  ('CC(=O)SCC(Cc1ccccc1)C(=O)NCC(=O)OCc1ccccc1 (stereo not given)', 'Compound metabolized'),
  ('CN(C)CCOC(C)(c1ccccc1)c1ccccn1.O=C(O)CCC(=O)O (stereo not given) [DOXYLAMINE SUCCINATE]', 'Compound NOT metabolized'),
  ('COc1ccc2[nH]c([S+]([O-])Cc3ncc(C)c(OC)c3C)nc2n1 (stereo not given)', 'Compound metabolized'),
  ('COc1ccc(/C=C/C(=O)Nc2ccccc2C(=O)O)cc1OC', 'Compound NOT metabolized'),
  ('CNNCc1ccc(C(=O)NC(C)C)cc1', 'Compound NOT metabolized');

Lookup result for COc1cc(NC(C)CCCN)c2ncccc2c1.O=P(O)(O)O.O=P(O)(O)O (stereo not given) [PRIMAQUINE PHOSPHATE] ; measured Bacterial Biotransformation: Compound NOT metabolized

Lookup result for NS(=O)(=O)c1cc2c(cc1Cl)N=C(CSCc1ccccc1)NS2(=O)=O [BENZTHIAZIDE] ; measured Bacterial Biotransformation: Compound NOT metabolized

Lookup result for "CN1CCc2cccc3c2[C@H]1Cc1ccc(O)c(O)c1-3" ; measured Bacterial Biotransformation: Compound NOT metabolized

Lookup result for "COc1ccc([C@@H]2Sc3ccccc3N(CCN(C)C)C(=O)[C@@H]2OC(C)=O)cc1" ; measured Bacterial Biotransformation: Compound metabolized

Lookup result for "Cc1nc2n(c(=O)c1CCN1CCC(c3noc4cc(F)ccc34)CC1)CCCC2" ; measured Bacterial Biotransformation: Compound NOT metabolized

Lookup result for CN(CCOc1ccc(CC2SC(=O)NC2=O)cc1)c1ccccn1.O=C(O)/C=C\C(=O)O (stereo not given) [ROSIGLITAZONE MALEATE] ; measured Bacterial Biotransformation: Compound NOT metabolized

Lookup result for CCCCCNC(=N)N/N=C/c1c[nH]c2ccc(OC)cc12.O=C(O)/C=C\C(=O)O [TEGASEROD MALEATE] ; measured Bacterial Biotransformation: Compound NOT metabolized

Lookup result for CC(C)N(CCC(C(N)=O)(c1ccccc1)c1ccccn1)C(C)C.O=P(O)(O)O (stereo not given) [DISOPYRAMIDE PHOSPHATE] ; measured Bacterial Biotransformation: Compound NOT metabolized

Lookup result for CCN(CC)CCNC(C(=O)OCCC(C)C)c1ccccc1.Cl.Cl (stereo not given) ; measured Bacterial Biotransformation: Compound NOT metabolized

Lookup result for "C[C@@H]1C[C@H]2[C@@H]3CCC4=CC(=O)C=C[C@]4(C)[C@@]3(F)[C@@H](O)C[C@]2(C)[C@@]1(O)C(=O)CO" ; measured Bacterial Biotransformation: Compound NOT metabolized

Lookup result for "CN1CC(=O)N2[C@H](c3ccc4c(c3)OCO4)c3[nH]c4ccccc4c3C[C@@H]2C1=O" ; measured Bacterial Biotransformation: Compound NOT metabolized

Lookup result for "COc1cc2nc(N3CCN(C(=O)c4ccco4)CC3)nc(N)c2cc1OC" ; measured Bacterial Biotransformation: Compound NOT metabolized

Lookup result for "CCS(=O)(=O)CCn1c([N+](=O)[O-])cnc1C" ; measured Bacterial Biotransformation: Compound metabolized

Lookup result for COc1ccccc1OCC(O)COC(N)=O (stereo not given) ; measured Bacterial Biotransformation: Compound NOT metabolized

Lookup result for CN1CCN2c3ccccc3Cc3ccccc3C2C1 (stereo not given) ; measured Bacterial Biotransformation: Compound NOT metabolized
